The measured values listed here are drawn from patent US20230272086A1.

Reported pEC50 values for the following binders.
# Measurement target: T1, cynomolgus monkey ST2 antigen (Cyno-ST2-his, Sino biological, 90915-C08H) (cynomolgus monkey, UniProt Q01638 19-328 (human entry))
# T1 construct: Bought protein; not shown: his tag
# T1 chain: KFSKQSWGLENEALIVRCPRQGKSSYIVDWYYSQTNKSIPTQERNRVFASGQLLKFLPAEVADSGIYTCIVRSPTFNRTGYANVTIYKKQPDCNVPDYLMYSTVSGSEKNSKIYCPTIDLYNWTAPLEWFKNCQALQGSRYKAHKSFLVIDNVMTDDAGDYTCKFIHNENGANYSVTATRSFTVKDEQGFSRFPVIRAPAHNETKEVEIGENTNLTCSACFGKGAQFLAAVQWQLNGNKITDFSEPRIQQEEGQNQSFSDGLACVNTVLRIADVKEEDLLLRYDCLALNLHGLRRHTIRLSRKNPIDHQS
# Experiment notes: ELISA, plate coated with Cyno-ST2-his
pEC50: −log10 of the molar value.

{"Binder": "Chimeric 31C8 (antibody, human IgG2, kappa, V domains shown, also called xi31C8) VH: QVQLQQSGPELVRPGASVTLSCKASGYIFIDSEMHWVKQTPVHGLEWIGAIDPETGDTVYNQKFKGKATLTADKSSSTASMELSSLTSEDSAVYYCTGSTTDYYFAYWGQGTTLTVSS VL: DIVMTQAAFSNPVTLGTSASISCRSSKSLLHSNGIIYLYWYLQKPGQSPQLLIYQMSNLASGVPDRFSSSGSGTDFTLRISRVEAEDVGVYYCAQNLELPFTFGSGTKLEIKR", "pEC50": 9.79}
{"Binder": "Chimeric 26A1 (antibody, human IgG2, kappa, V domains shown, also called xi26A1) VH: QVQLQQSGAELVRPGASVTLSCKASDYIFTDSEIHWVKQTLVHGLEWIGAIDPETGDTAYNQKFKGKATLTADKSSSTAYMELSSLTSEGSAVYYCSGSTTDCYFAYWGQGTTLTVSS VL: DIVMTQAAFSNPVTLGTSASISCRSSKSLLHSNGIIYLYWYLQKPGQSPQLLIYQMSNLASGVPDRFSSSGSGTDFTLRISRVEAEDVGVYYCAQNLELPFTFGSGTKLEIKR", "pEC50": 9.02}
{"Binder": "Chimeric 3C6 (antibody, human IgG2, kappa, V domains shown, also called xi3C6) VH: QVQLQQSGAEVVRPGASVTLSCKASDYTITDYEMHWVKQTPVHGLEWIGAIDPETGDTAYSQNFKGKATLTADESSSTAYMELSSLTSEDSAVYYCSRSATDYYFASWGQGTTLTVSS VL: DIVMTQAAISNPVTLGTSASMSCRSSKSLLHSNGITYLYWYLQKPGHSPQLLIYQMSNLASGVPDRFSSSGSGTDFTLKISRVEAEDVGVYYCAQNLELPFTFGSGTKLEIKR", "pEC50": 9.37}
